Test system: MCF-7 human breast cancer cells
Experiment: ATP-depletion assay (CellTiter-Glo & Hoechst 33342) in MCF-7 cells
Type: cell-based
Conditions: MCF-7 cell line, 50 μM treatment for 72 hours; cell viability, normalized to control
assay metric: Hoechst staining (%)

In [3]: df
Out[3]:
                                   compound          assay_metric  reported_measurement
0  N#Cc1ccc(C[P+](c2ccccc2)(c2ccccc2)c2ccccc2)cc1 [4-cyanobenzyl-TPP]  Hoechst staining (%)                 72.7%

Entry c1ccc([P+](Cc2ccc(C[P+](c3ccccc3)(c3ccccc3)c3ccccc3)cc2)(c2ccccc2)c2ccccc2)cc1 [p-xylylenebis-TPP, p-xylylene-bis-TPP] ; Hoechst staining (%) = 69.1%

Entry N#CC[P+](c1ccccc1)(c1ccccc1)c1ccccc1 [cyanomethyl-TPP] ; Hoechst staining (%) = 97.2%

Entry CC1(C)CC(NC(=O)C[P+](c2ccccc2)(c2ccccc2)c2ccccc2)CC(C)(C)N1[O] [mito-TEMPO, reference compound] ; Hoechst staining (%) = 100.0%
